# TARGET_OF_ASSAY: human TRPV1 (Homo sapiens)
# Sequence (Q8NER1 whole entry): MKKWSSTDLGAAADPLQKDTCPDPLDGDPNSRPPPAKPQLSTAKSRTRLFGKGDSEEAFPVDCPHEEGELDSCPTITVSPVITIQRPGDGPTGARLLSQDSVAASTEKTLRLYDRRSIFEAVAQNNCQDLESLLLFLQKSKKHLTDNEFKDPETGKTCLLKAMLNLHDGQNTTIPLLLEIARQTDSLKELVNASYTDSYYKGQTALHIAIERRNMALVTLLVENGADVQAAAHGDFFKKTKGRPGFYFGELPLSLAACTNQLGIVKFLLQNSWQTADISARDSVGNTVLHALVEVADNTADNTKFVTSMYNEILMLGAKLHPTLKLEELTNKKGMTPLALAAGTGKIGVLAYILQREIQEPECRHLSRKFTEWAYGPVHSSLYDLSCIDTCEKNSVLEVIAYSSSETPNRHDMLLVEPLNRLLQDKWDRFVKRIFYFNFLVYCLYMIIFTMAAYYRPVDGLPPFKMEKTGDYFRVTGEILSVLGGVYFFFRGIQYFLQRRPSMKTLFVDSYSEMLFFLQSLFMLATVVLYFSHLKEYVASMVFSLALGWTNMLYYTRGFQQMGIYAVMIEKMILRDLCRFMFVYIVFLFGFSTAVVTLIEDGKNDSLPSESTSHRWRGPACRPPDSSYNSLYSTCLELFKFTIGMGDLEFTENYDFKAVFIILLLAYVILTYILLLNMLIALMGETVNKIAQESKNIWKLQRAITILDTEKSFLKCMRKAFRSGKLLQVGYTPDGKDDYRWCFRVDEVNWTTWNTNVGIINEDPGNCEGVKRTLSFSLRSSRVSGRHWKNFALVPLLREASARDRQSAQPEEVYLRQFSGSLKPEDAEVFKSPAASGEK
# MEASUREMENT_NOTES: Functional assay: block of capsaicin-induced Ca2+ influx, human assay (hTRPV1/HEK293, FLIPR)
# CONDITIONS: hTRPV1/HEK293 cells, 150 nM capsaicin challenge, Fluo-3 fluorescence; mean; > value = solubility limit in assay medium
pIC50: −log10 of the molar value.
MEASURED_QUANTITY: pIC50

Example cases with answers are listed next.
>  <SMILES_STRING>
Cc1nc(Nc2ccc(C(=O)N(C)C)cc2)c2nc(Nc3c(Cl)cccc3Cl)sc2n1

>  <pIC50>
5.72

$$$$
>  <SMILES_STRING>
Cc1cccc(C)c1Nc1nc2c(Nc3ccc(Br)cc3)ncnc2s1

>  <pIC50>
7.01

$$$$

a. C[C@H]1COCCN1c1nc(Nc2ccc(C(F)(F)F)cc2)c2nc(Nc3c(Cl)cccc3Cl)sc2n1
b. Cc1cccc(C)c1Nc1nc2c(Nc3ccc(C#N)cc3)ncnc2s1
Ask: Among a and b , which shows a numerically higher pIC50 result? Please identify the chosen entry by its label.
Result: b

a. FC(F)(F)c1ccc(Nc2ncnc3sc(Nc4ccccc4Cl)nc23)cc1
b. CC(C)(C(=O)O)c1ccc(Nc2ncnc3sc(Nc4c(Cl)cccc4Cl)nc23)cc1
Ask: Looking at recorded values for pIC50, does a or b come in lower? Answer by stating the label of the chosen item.
Result: a

---

# TARGET_OF_ASSAY: rat TRPV1 (Rattus norvegicus)
# MEASUREMENT_NOTES: Functional assay: block of capsaicin-induced Ca2+ influx, rat assay (rTRPV1/HEK293, FLIPR)
# CONDITIONS: rTRPV1/HEK293 cells, capsaicin challenge, Fluo-3 fluorescence; mean; > value = solubility limit in assay medium
MEASURED_QUANTITY: IC50 (nM)

>  <COMPOUND>
CC1CCCN1c1nc(Nc2ccc(C(F)(F)F)c(Cl)c2)c2nc(Nc3c(Cl)cccc3Cl)sc2n1 (racemic) [Example 130]

>  <TARGET_OF_ASSAY>
rat TRPV1 (Rattus norvegicus)

>  <IC50, nM>
87

$$$$
>  <COMPOUND>
Cc1cccc(C)c1Nc1nc2c(Nc3ccc(C#N)c(Cl)c3)ncnc2s1 [Example 142]

>  <TARGET_OF_ASSAY>
rat TRPV1 (Rattus norvegicus)

>  <IC50, nM>
231

$$$$
>  <COMPOUND>
Cc1nc(Nc2ccc(SC(F)(F)F)c(Cl)c2)c2nc(Nc3c(C)cccc3C)sc2n1 [Example 131]

>  <TARGET_OF_ASSAY>
rat TRPV1 (Rattus norvegicus)

>  <IC50, nM>
140

$$$$

I. COc1cc(CNc2ncnc3sc(Nc4c(C)cccc4C)nc23)ccc1O [Example 38]
II. Cc1nc(Nc2ccc(C)c(F)c2)c2nc(Nc3c(C)cccc3C)sc2n1 [Example 133]
III. CN1CCN(CCCNc2nc(Nc3ccc(C(F)(F)F)cc3)c3nc(Nc4c(Cl)cccc4Cl)sc3n2)CC1 [Example 153]
IV. Cc1nc(NC2CCC(C(C)(C)C)CC2)c2nc(Nc3c(Cl)cccc3Cl)sc2n1 (mixture of isomers) [Example 8]
Ask: Put the items in order so that reported IC50 rises from first to last. Sort and list the labels as requested.
Result: IV, II, III, I
(IV: 70 nM, II: 107 nM, III: 440 nM, I: 7130 nM)

I. FC(F)(F)c1ccc(Nc2ncnc3sc(Nc4c(Cl)cncc4Cl)nc23)cc1 [Example 72]
II. Cc1cccc(C)c1Nc1nc2c(Nc3ccc(C(C)O)cc3)ncnc2s1 (racemic) [Example 140]
Ask: Compare I and II by numeric IC50 and name the larger one. Select an item and report its label.
Result: I
(I: 627 nM, II: 185 nM)

---

# TARGET_OF_ASSAY: rat TRPV1 (Rattus norvegicus, UniProt O35433)
# Sequence (O35433 whole entry): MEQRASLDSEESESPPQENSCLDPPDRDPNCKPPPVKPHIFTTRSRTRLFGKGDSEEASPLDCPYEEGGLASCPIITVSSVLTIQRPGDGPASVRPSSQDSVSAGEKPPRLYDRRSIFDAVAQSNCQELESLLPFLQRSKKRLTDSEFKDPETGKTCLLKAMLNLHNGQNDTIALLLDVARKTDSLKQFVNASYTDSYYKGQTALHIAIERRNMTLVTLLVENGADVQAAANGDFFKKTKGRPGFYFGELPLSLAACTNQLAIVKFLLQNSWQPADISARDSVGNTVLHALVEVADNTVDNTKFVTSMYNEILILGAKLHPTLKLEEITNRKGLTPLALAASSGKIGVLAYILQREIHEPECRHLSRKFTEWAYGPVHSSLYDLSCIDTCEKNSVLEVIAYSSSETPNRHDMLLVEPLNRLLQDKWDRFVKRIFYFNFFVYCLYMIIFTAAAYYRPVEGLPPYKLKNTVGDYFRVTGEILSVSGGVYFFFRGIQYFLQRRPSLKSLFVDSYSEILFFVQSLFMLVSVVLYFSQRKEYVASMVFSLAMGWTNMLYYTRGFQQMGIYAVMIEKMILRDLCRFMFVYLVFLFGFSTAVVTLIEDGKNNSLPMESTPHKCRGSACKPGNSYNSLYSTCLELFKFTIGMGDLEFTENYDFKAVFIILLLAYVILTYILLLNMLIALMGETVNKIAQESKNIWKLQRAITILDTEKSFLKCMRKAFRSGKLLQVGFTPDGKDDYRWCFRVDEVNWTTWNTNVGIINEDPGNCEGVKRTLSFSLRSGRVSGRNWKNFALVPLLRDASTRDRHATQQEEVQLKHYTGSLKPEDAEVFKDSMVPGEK
# MEASUREMENT_NOTES: Functional assay: block of capsaicin-induced Ca2+ influx, rat assay (rTRPV1/HEK293, FLIPR)
# CONDITIONS: rTRPV1/HEK293 cells, capsaicin challenge, Fluo-3 fluorescence; mean; > value = solubility limit in assay medium
pIC50: −log10 of the molar value.
MEASURED_QUANTITY: pIC50

Consider the reported pIC50 for these compounds:
>  <COMPOUND>
Cc1nc(Nc2ccc(C(F)(F)F)cc2)c2nc(Nc3c(-c4ccccc4)noc3C)sc2n1

>  <MEASURED_QUANTITY>
pIC50

>  <DATA_VALUE>
7.60

$$$$
>  <COMPOUND>
Cc1cccc(C)c1Nc1nc2c(Nc3ccc(C(F)(F)F)nc3)ncnc2s1

>  <MEASURED_QUANTITY>
pIC50

>  <DATA_VALUE>
8.15

$$$$
>  <COMPOUND>
CC(C)C1CCCN1c1nc(Nc2ccc(C(F)(F)F)cc2)c2nc(Nc3c(Cl)cccc3Cl)sc2n1 (racemic)

>  <MEASURED_QUANTITY>
pIC50

>  <DATA_VALUE>
8.70

$$$$
>  <COMPOUND>
OCc1cc(Cl)c(Nc2nc3c(Nc4ccc(C(F)(F)F)cc4)ncnc3s2)c(Cl)c1

>  <MEASURED_QUANTITY>
pIC50

>  <DATA_VALUE>
9.00

$$$$

P. CS(=O)(=O)c1ccc(Nc2ncnc3sc(Nc4c(Cl)cc(C(N)=O)cc4Cl)nc23)cc1
Q. CSc1nc(Nc2ccc(S(=O)(=O)N(C)C)cc2)c2nc(Nc3c(Cl)cccc3Cl)sc2n1
Ask: Exercise: compare P and Q ; which one has the greater pIC50? Indicate which entry you chose by stating its label.
Result: Q

---

# TARGET_OF_ASSAY: rat TRPV1 (Rattus norvegicus)
# MEASUREMENT_NOTES: Functional assay: block of capsaicin-induced Ca2+ influx, rat assay (rTRPV1/HEK293, FLIPR)
# CONDITIONS: rTRPV1/HEK293 cells, capsaicin challenge, Fluo-3 fluorescence; mean; > value = solubility limit in assay medium
MEASURED_QUANTITY: IC50 (nM)

>  <COMPOUND>
CS(=O)(=O)c1ccccc1Nc1nc2c(Nc3ccc(C(F)(F)F)cc3)ncnc2s1

>  <MEASURED_QUANTITY>
IC50

>  <UOM>
nM

>  <DATA_VALUE>
244

$$$$
>  <COMPOUND>
Cc1ccccc1Nc1nc2c(Nc3ccc(C(F)(F)F)nc3)ncnc2s1

>  <MEASURED_QUANTITY>
IC50

>  <UOM>
nM

>  <DATA_VALUE>
24

$$$$
>  <COMPOUND>
CN(C)S(=O)(=O)c1ccc(Nc2ncnc3sc(Nc4c(Cl)cccc4Cl)nc23)cc1

>  <MEASURED_QUANTITY>
IC50

>  <UOM>
nM

>  <DATA_VALUE>
1

$$$$
>  <COMPOUND>
CC(C)(C)c1ccc(Nc2ncnc3sc(Nc4c(Cl)cccc4Cl)nc23)cc1

>  <MEASURED_QUANTITY>
IC50

>  <UOM>
nM

>  <DATA_VALUE>
1

$$$$
>  <COMPOUND>
CSc1ccccc1Nc1nc2c(Nc3ccc(C(F)(F)F)cc3)nc(C)nc2s1

>  <MEASURED_QUANTITY>
IC50

>  <UOM>
nM

>  <DATA_VALUE>
319

$$$$
>  <COMPOUND>
CS(=O)(=O)c1nc(Nc2ccc(C(F)(F)F)cc2)c2nc(Nc3c(Cl)cccc3Cl)sc2n1

>  <MEASURED_QUANTITY>
IC50

>  <UOM>
nM

>  <DATA_VALUE>
93

$$$$
>  <COMPOUND>
Cc1nc(Nc2ccc(C(F)(F)F)c(Cl)c2)c2nc(Nc3c(C)cccc3C)sc2n1

>  <MEASURED_QUANTITY>
IC50

>  <UOM>
nM

>  <DATA_VALUE>
19

$$$$
>  <COMPOUND>
CC1CCCCN1c1nc(Nc2ccc(C(F)(F)F)c(Cl)c2)c2nc(Nc3c(Cl)cccc3Cl)sc2n1 (racemic)

>  <MEASURED_QUANTITY>
IC50

>  <UOM>
nM

>  <DATA_VALUE>
25

$$$$

1. Cc1nc(Nc2ccc(C(C)(C)C)cc2)c2nc(Nc3c(C)cccc3C)sc2n1
2. FC(F)(F)c1ccc(Nc2nc(N3CCOCC3)nc3sc(Nc4c(Cl)cccc4Cl)nc23)cc1
Ask: Kindly identify the item with the lower IC50 figure among these two: 1 and 2 Indicate which entry you chose by stating its label.
Result: 1

---

# TARGET_OF_ASSAY: human TRPV1 (Homo sapiens)
# MEASUREMENT_NOTES: Functional assay: block of capsaicin-induced Ca2+ influx, human assay (hTRPV1/HEK293, FLIPR)
# CONDITIONS: hTRPV1/HEK293 cells, 150 nM capsaicin challenge, Fluo-3 fluorescence; mean; > value = solubility limit in assay medium
MEASURED_QUANTITY: IC50 (nM)

Study these solved cases before continuing.
>  <COMPOUND>
OCC1CN(c2nc(Nc3ccc(C(F)(F)F)cc3)c3nc(Nc4c(Cl)cccc4Cl)sc3n2)CCO1 (racemic)

>  <TARGET_OF_ASSAY>
human TRPV1 (Homo sapiens)

>  <UOM>
nM

>  <IC50>
646

$$$$
>  <COMPOUND>
Cc1nc(Nc2ccc(C(F)(F)F)cc2)c2nc(Nc3c(-c4ccccc4)noc3C)sc2n1

>  <TARGET_OF_ASSAY>
human TRPV1 (Homo sapiens)

>  <UOM>
nM

>  <IC50>
91

$$$$
>  <COMPOUND>
Cc1cccc(C)c1Nc1nc2c(NC3CCC(C(C)(C)C)CC3)ncnc2s1 (single isomer, unassigned)

>  <TARGET_OF_ASSAY>
human TRPV1 (Homo sapiens)

>  <UOM>
nM

>  <IC50>
1100

$$$$
>  <COMPOUND>
O=S(=O)(c1ccc(Nc2ncnc3sc(Nc4ccccc4Cl)nc23)cc1)C(F)(F)F

>  <TARGET_OF_ASSAY>
human TRPV1 (Homo sapiens)

>  <UOM>
nM

>  <IC50>
48

$$$$
>  <COMPOUND>
CC1CCCN1c1nc(Nc2ccc(C(F)(F)F)c(Cl)c2)c2nc(Nc3c(Cl)cccc3Cl)sc2n1 (racemic)

>  <TARGET_OF_ASSAY>
human TRPV1 (Homo sapiens)

>  <UOM>
nM

>  <IC50>
170

$$$$

1. CC1CCCCN1c1nc(Nc2ccc(C(F)(F)F)cc2)c2nc(Nc3c(Cl)cccc3Cl)sc2n1 (racemic)
2. CC(C)(C#N)c1ccc(Nc2ncnc3sc(Nc4c(Cl)cccc4Cl)nc23)cc1
Ask: Select the item with the higher value of IC50 from the options 1 and 2 listed. Choose, then provide that item's label.
Result: 2

Reference source for all entries: patent US20080004253A1
